Let's go through some recorded pKi values for Adenosine receptor A2a (Homo sapiens, UniProt P29274) together.
Numbers only, as −log10 of the molar value.

Use these answered entries as a reference point.
1) Nc1nc2cn(CCc3ccccc3)cc2c2nc(-c3ccco3)nn12    8.41
2) CCCn1cc2nc(NC(=O)Nc3ccc(OC)cc3)n3nc(-c4ccco4)nc3c2c1    6.70
3) COc1ccc(NC(=O)Nc2nc3cn(C)nc3c3nc(-c4ccco4)nn23)cc1    6.65

Please report pKi for every entry that follows.
1. COc1ccc(NC(=O)Nc2nc3cnn(CCc4ccccc4)c3c3nc(-c4ccco4)nn23)cc1
2. Cn1ncc2nc(NC3CCCCC3)n3nc(-c4ccco4)nc3c21

[6.20, 6.92]

* * *

Answer each item with its documented Ki.
Biological target: Adenosine receptor A3 (Homo sapiens, UniProt P0DMS8)
Sequence (P0DMS8 whole entry): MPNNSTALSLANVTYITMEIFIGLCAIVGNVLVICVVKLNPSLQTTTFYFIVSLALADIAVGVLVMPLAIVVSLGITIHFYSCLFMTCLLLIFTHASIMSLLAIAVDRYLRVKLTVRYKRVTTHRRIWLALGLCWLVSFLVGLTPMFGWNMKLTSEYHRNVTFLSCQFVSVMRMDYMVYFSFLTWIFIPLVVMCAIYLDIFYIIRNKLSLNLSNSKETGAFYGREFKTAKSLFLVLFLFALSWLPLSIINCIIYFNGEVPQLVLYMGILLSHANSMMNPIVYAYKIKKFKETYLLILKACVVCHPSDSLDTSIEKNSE
One number for each entry, in nM.

Study these solved cases before continuing.
1) CCCn1ncc2nc(N)n3nc(-c4ccco4)nc3c21    83
2) COc1ccc(NC(=O)Nc2nc3cnn(C)c3c3nc(-c4ccco4)nn23)cc1    61
3) COc1ccc(NC(=O)Nc2nc3cn(CCc4ccccc4)cc3c3nc(-c4ccco4)nn23)cc1    12
4) CCCn1cc2nc(N)n3nc(-c4ccco4)nc3c2n1    432
5) COc1ccc(NC(=O)Nc2nc3cn(CCCc4ccccc4)cc3c3nc(-c4ccco4)nn23)cc1    13

Below are some compounds; for each one, tell me its Ki.
1. COc1ccc(NC(=O)Nc2nc3cn(CCc4ccccc4)nc3c3nc(-c4ccco4)nn23)cc1
2. CCCn1cc2nc(NC(=O)Nc3ccc(OC)cc3)n3nc(-c4ccco4)nc3c2n1

314
50

* * *

Target: Adenosine receptor A2b (Homo sapiens, UniProt P29275)
Sequence (P29275 whole entry): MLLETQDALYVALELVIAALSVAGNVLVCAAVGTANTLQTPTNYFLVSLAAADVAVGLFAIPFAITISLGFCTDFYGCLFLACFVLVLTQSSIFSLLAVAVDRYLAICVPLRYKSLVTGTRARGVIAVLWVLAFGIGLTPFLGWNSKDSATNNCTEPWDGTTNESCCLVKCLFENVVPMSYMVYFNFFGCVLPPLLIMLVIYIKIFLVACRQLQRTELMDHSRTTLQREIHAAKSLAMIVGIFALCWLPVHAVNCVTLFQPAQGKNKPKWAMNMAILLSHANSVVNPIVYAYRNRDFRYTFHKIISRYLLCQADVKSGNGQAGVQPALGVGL
Please go through the items and note down their IC50.
One number for each entry, in nM.

Below, 5 molecules whose answers are already recorded.
1. CCCn1ncc2nc(N)n3nc(-c4ccco4)nc3c21    40
2. COc1ccc(NC(=O)Nc2nc3cn(CCc4ccccc4)nc3c3nc(-c4ccco4)nn23)cc1    548
3. COc1ccc(NC(=O)Nc2nc3cnn(CCc4ccccc4)c3c3nc(-c4ccco4)nn23)cc1    772
4. Nc1nc2cn(CCc3ccccc3)nc2c2nc(-c3ccco3)nn12    27
5. COc1ccc(NC(=O)Nc2nc3cn(C)cc3c3nc(-c4ccco4)nn23)cc1    838

For each of the molecules below, note its IC50.
1. Cn1ncc2nc(NC3CCCCC3)n3nc(-c4ccco4)nc3c21
2. Nc1nc2cnn(CCc3ccccc3)c2c2nc(-c3ccco3)nn12

915
319

I need IC50 for every entry listed below, if you could help.
1. CCCn1cc2nc(N)n3nc(-c4ccco4)nc3c2c1
2. Nc1nc2cn(CCc3ccccc3)cc2c2nc(-c3ccco3)nn12

[90, 46]
